- TEST TARGET: T1, Human IL13Rα2 (human, UniProt Q14627 27-343, limits assumed)
- T1 construct: also called human recombinant IL13Rα2; Human IL13Ra2
- T1 sequence (looked up): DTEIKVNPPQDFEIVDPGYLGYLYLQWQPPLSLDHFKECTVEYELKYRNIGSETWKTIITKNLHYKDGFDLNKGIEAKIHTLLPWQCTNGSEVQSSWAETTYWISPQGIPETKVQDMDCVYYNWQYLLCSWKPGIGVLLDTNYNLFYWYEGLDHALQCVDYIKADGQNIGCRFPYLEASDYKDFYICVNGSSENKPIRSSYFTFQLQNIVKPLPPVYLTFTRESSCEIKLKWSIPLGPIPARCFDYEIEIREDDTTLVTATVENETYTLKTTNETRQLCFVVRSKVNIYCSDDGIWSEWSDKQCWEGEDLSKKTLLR
- RUN DESCRIPTION: SPR Biacore 8K affinity ranking, antibody supernatant Fc-captured, 100 nM IL13Rα2 analyte
kon values by entry
Number plus unit, in that order.

Humanized antibody VH3 + VL4 (antibody, human IgG1, kappa, V domains shown) VH: QVQLVQSGAEVKKPGASVKVSCKASGYTFSNYLMNWVRQAPGQGLEWMGRIDPYDGDIDYNQNFKDRVTMTRDTSTSTVYMELSSLRSEDTAVYYCARGYGTAYGVDYWGQGTLVTVSS VL: EIVMTQSPATLSVSPGERATLSCRASESVDNYGISFMNWYQQKPGQAPRLLIYAASRQGSGIPARFSGSGSGTEFTLTISSLQSEDFAVYYCQQSKEVPWTFGGGTKLEIKR    625000 M⁻¹ s⁻¹
Humanized antibody VH1 + VL3 (antibody, human IgG1, kappa, V domains shown) VH: QVQLVQSGAEVKKPGSSVKVSCKASGYTFSNYLMNWVRQAPGQGLEWMGRIDPYDGDIDYNQNFKDRVTITADKSTSTAYMELSSLRSEDTAVYYCARGYGTAYGVDYWGQGTLVTVSS VL: EIVLTQSPATLSLSPGERATLSCRASESVDNYGISFMNWYQQKPGQAPRLLIYAASRQGSGIPARFSGSGSGTDFTLTISSLEPEDFAVYYCQQSKEVPWTFGGGTKLEIKR    514000 M⁻¹ s⁻¹
Humanized antibody VH1 + VL2 (antibody, human IgG1, kappa, V domains shown) VH: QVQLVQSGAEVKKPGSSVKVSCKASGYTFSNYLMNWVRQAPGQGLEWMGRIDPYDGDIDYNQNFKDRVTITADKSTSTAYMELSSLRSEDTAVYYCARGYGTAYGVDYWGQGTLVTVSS VL: DIQMTQSPSSLSASVGDRVTITCRASESVDNYGISFMNWYQQKPGKAPKLLIYAASRQGSGVPSRFSGSGSGTDFTLTISSLQPEDFATYYCQQSKEVPWTFGGGTKLEIKR    412000 M⁻¹ s⁻¹

Item under review: Humanized antibody VH1 + VL1 (antibody, human IgG1, kappa, V domains shown, also called Humanized VH1-VL1; U3621EI120 VH1+VL1) VH: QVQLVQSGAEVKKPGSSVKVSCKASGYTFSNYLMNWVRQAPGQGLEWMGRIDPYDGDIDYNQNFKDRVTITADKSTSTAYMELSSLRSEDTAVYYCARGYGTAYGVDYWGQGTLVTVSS VL: DIVMTQSPDSLAVSLGERATINCRASESVDNYGISFMNWYQQKPGQPPKLLIYAASRQGSGVPDRFSGSGSGTDFTLTISSLQAEDVAVYYCQQSKEVPWTFGGGTKLEIKR . Reported kon?
429000 M⁻¹ s⁻¹

Where these numbers come from: patent US12703750
